# kon per record follows
TEST_TARGET: T1, mature recombinant human GDF-15 with an N-terminal Flag and His tag, biotinylated (human, UniProt Q99988 197-308, chemically biotinylated with EZ link Sulfo-NHS-LC-Biotin, sites not stated)
T1 construct: not shown: N-terminal Flag and His tags
T1 sequence: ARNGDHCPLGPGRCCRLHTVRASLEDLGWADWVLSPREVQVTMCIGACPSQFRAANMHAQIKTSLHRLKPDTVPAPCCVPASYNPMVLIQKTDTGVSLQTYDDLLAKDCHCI
TEST_METHOD_NOTES: SPR Biacore 8K, 25 C, biotinylated GDF-15 on streptavidin C1 chip, Fab as analyte
Write it as a number; the unit M⁻¹ s⁻¹ goes unstated.

Worked cases, answers included:
[[record]]
binder = "AB1170249 Fab (Fab, V domains shown, Fab of the humanized antibody, expressed as in Spooner et al. 2015) VH: QVQLQESGPGLLKPSQTLSLTCTVSGFSLSTYGMGVGWIRQPLGKGLEWLANIWWNDDKYYNSALKSRLTISKDTSKNQVSLKLSSVTAADTAVYYCAQMAYSWFAYWGQGTLVTVSS VL: DIQMTQSPSFLSASVGDRVTITCKASQNMDTNVAWYQQKPGQPPKALIYSASYRYSGVPDRFSGSGSGTDFTLTISSLQAEDVAVYYCQQYNSYPFTFGQGTKLEIK"
property = "kon"
experimental_value = "3.63e+06"

[[record]]
binder = "AB1170243 Fab (Fab, V domains shown, Fab of the humanized antibody, expressed as in Spooner et al. 2015) VH: QVQLVQSGSELKKPGASVKVSCKASGYTFTDYNMDWIRQSPGKGLEWIGDINPNNGGTFYNQKFKDRATLTVDKSTSTAYMELRSLRSDDTAVYYCAREEKLYFGLMDYWGQGTTVTVSS VL: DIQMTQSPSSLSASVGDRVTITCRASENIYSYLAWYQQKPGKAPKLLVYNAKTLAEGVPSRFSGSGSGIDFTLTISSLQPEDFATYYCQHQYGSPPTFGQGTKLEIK"
property = "kon"
experimental_value = "4.74e+06"


Value of kon reported for the binder AB1170242 Fab (Fab, V domains shown, Fab of the humanized antibody, expressed as in Spooner et al. 2015) VH: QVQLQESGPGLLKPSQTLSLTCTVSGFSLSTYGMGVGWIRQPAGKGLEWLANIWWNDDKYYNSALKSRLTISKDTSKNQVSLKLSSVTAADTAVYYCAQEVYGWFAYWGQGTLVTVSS VL: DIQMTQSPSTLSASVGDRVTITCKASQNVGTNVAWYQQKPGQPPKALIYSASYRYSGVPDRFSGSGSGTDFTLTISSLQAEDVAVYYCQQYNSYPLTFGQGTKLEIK is 7.68e+06

Where do these numbers come from? They come from patent US20220281965A1.
